- TESTED_ON: Cystic fibrosis transmembrane conductance regulator (Homo sapiens) (UniProt P13569)
- Sequence (P13569 whole entry, looked up, stated change not applied): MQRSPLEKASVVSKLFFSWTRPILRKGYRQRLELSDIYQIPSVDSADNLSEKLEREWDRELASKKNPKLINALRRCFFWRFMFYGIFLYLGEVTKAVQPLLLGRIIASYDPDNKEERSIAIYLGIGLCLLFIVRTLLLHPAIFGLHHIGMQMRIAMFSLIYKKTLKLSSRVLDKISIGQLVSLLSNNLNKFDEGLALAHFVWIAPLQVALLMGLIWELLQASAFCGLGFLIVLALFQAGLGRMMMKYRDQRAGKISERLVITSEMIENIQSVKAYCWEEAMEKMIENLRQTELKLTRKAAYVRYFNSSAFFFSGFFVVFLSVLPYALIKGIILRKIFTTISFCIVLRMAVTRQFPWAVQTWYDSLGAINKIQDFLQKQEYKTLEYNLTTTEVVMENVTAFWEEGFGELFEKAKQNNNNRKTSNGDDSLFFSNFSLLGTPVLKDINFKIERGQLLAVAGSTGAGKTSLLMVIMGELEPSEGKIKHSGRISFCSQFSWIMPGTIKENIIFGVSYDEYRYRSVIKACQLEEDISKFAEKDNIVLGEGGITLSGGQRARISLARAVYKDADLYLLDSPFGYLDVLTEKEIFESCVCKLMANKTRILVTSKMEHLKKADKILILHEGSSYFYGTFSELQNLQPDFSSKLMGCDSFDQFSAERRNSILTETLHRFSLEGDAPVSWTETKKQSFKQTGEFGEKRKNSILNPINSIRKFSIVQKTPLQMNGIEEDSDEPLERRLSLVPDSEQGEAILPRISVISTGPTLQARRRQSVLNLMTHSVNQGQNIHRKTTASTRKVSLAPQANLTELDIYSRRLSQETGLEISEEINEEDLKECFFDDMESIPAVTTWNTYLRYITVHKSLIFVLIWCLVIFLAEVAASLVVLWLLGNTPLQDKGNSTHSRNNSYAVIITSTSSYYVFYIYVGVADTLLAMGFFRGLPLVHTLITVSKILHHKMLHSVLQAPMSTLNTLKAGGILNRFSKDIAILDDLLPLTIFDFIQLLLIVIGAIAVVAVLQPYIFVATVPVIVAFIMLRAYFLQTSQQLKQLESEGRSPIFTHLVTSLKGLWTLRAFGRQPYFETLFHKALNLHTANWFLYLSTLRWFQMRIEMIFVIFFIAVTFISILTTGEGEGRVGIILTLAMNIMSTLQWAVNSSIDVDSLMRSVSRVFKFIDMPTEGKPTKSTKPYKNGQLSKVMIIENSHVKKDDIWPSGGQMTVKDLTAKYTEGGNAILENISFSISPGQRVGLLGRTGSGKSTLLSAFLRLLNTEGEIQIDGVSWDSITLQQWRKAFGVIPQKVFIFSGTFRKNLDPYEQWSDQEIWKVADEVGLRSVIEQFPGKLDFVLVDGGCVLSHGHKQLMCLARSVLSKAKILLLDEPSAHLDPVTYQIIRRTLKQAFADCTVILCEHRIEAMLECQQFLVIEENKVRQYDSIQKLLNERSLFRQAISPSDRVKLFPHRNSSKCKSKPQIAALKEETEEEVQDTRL
- PROCEDURE_DETAILS: F508del-CFTR plasma membrane relocalization enhancers – imaging, HeLa, high-content microscopy, immunofluorescence, primary screen (AID 1224864);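 further: HeLa cells stably expressing F508del-CFTR stained with 3G11 antibody against NBD1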;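 on plasma membrane CFTR intensity: mean immunofluorescence in a thin cell-margin band taken as plasma membrane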
- REPORTED_CONDITIONS: PM immunofluorescence imaging, 24 h, at 10 µM, stronger effect = higher value, relative to vehicle wells set at 100
Out of some 2,000 compounds screened, about 20 (1%) were called active. For the sample, actives were picked, then their nearest neighbours and some compounds at random.
Would you mind telling me the reported plasma membrane CFTR intensity of each entry?
State the answer as a number, implicitly in %.

// query Recorded plasma membrane CFTR intensity of COc1cc(CNc2nnnn2C)ccc1OCc1ccc(F)cc1Cl , please.
// result 79

// query I'd like to know its plasma membrane CFTR intensity. The molecule in question is COc1ccc(S(=O)(=O)NC(Cc2cnc[nH]2)C(=O)O)cc1 (stereo not drawn)
// result 75

// query If you can, please state the reported plasma membrane CFTR intensity value of CCC(C(=O)Nc1ccc2c(c1)OCCO2)c1ccccc1 (stereo not drawn) .
// result 78

----------
Task for the reader: assign each of the following compounds its reported total CFTR intensity.
- TESTED_ON: Cystic fibrosis transmembrane conductance regulator (Homo sapiens)
- PROCEDURE_DETAILS: F508del-CFTR plasma membrane relocalization enhancers – imaging, HeLa, high-content microscopy, immunofluorescence, primary screen (AID 1224864);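 further: HeLa cells stably expressing F508del-CFTR stained with 3G11 antibody against NBD1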
- REPORTED_CONDITIONS: PM immunofluorescence imaging, 24 h, at 10 µM, stronger effect = higher value, relative to vehicle wells set at 100; measured here: total cellular F508del-CFTR signal
About 20 (1%) of roughly 2,000 compounds were called active. The sample as a whole holds a higher share of actives than the screen did. Residues, ends and D or L forms follow the SMILES beside them. *: point of attachment. Boc = CC(C)(C)OC(=O)*; OBn = c1ccc(CO*)cc1
Report only the number, with the unit % understood.

// query Dear colleague, I am looking for the recorded total CFTR intensity of the following compound: CCOC(=O)/C=C1\NC(C)(C)Cc2cc(OC)c(OC)cc21
// result 89

// query Which value of total CFTR intensity has been reported for O=C1CCCCCN1Cc1ccccc1 in the records?
// result 90

// query If you can, please state the reported total CFTR intensity value of O=c1c2[nH]c3ccccc3c2ncn1CCC1=CCCCC1 .
// result 88

// query Please report the recorded total CFTR intensity for CC(C)CC(NC(=O)C(NC(=O)OC(C)(C)C)C(C)C)C(=O)NC(CCC(=O)OCc1ccccc1)C(N)=O (stereo not drawn) (Boc-Val-Leu-Glu(OBn)-NH2; configuration not given here) .
// result 80

// query Can you look up the measured total CFTR intensity of CC(C)Cc1nc(NCCN2CCOCC2)c(C#N)c2c1COC(C)(C)C2 for me?
// result 92

// query What does the data say about its total CFTR intensity? Entry: C=C(C)COc1ccc(-c2nc(N)ncc2-c2ccc(OC)cc2)c(O)c1
// result 81

// query Please give the measured total CFTR intensity for this compound: COc1ccc(/C=C\c2cc(OC)c(OC)cc2CC[N+](C)(C)C)cc1OC
// result 82

// query So what does the record say about total CFTR intensity for COc1ccc2cc(C3(C)NC(=O)NC3=O)ccc2c1 (stereo unspecified) ?
// result 88

// query Using the record for CCOC(=O)C1(CCCc2ccccc2)CCN(C2CCN(C(C)=O)CC2)CC1 , report its total CFTR intensity.
// result 101

// query Any idea what its total CFTR intensity is? The compound is CC(=O)OCC(=O)[C@@]1(O)CC[C@H]2[C@@H]3CCC4=CC(=O)C=C[C@]4(C)[C@H]3[C@@H](O)C[C@@]21C
// result 94

// query Entry under review: COc1ccccc1/C=C/CN1CCN(Cc2ccc(F)cc2)C(CCO)C1 (stereo unspecified) . Reported total CFTR intensity?
// result 77

// query # query: total CFTR intensity of entry CC[N+]1(C)CC2CCC(C)(C1)C2(C)C (stereo unspecified)
// result 75

// query Suppose we examine the compound CC(=O)[C@@H]1[C@@H](C(=O)c2ccc(C)cc2)[C@]2(C(=O)Nc3ccccc32)[C@H]2C=Cc3cc(F)ccc3N12 ; what total CFTR intensity value has been reported?
// result 114

// query Requested field: total CFTR intensity. Item: Cc1ccc2c(c1)C(C)(C)[C@]1(C)NC(=O)CCN21
// result 97

// query I'd like to know its total CFTR intensity. The compound in question is CC(C)COC(=O)C1C(=O)CC(C)(O)C(C(=O)OCC(C)C)C1c1cccnc1 (stereo unspecified)
// result 100

// query Looking for the measured total CFTR intensity of O=C(CCC1CCCN(C(=O)c2ccsc2)C1)NCc1ccc(F)c(F)c1 (stereo unspecified) , can you help?
// result 83

// query # lookup: total CFTR intensity of C[C@@H]1C[C@H](Nc2ccccc2)c2ccccc2N1C(=O)c1cccnc1
// result 103

// query // lookup total CFTR intensity for COc1cc2ccc(=O)oc2c(O)c1OCC=C(C)C
// result 92

// query Suppose we examine the compound CCC(C(=O)OCCN(CC)CC)c1ccccc1 (stereo unspecified) ; what total CFTR intensity value has been reported?
// result 100

// query What value of total CFTR intensity has been recorded for this entry: CC1(C)O[C@@H]2C[C@H]3[C@@H]4CCC5=CC(=O)C=C[C@]5(C)[C@@]4(F)[C@@H](O)C[C@]3(C)[C@]2(C(=O)CO)O1
// result 114

// query Which total CFTR intensity is listed for Fc1ccc(C(c2ccc(F)cc2)N2CCN(C/C=C/c3ccccc3)CC2)cc1 ?
// result 120

// query Suppose we examine the compound COc1ccc(CC(=O)c2c(O)cc(O)cc2O)cc1OC ; what total CFTR intensity value has been reported?
// result 82

// query Which total CFTR intensity is listed for Cc1cc(O)c2/c(=N/N)c(-c3csc(C)n3)coc2c1 ?
// result 71

// query I am curious: what total CFTR intensity value has been reported for CCN(CC)CCOC(=O)C(c1ccccc1)c1ccccc1 ?
// result 84

// query Which total CFTR intensity value belongs to COc1ccc2[nH]c3c(c2c1)CCNC3C1CC=C(C)CC1 (stereo unspecified) ?
// result 117

// query Quick one: total CFTR intensity for COc1ccc2c(c1)c(=O)oc1cc3occ(C(C)(C)C)c3cc12 ?
// result 88

// query # lookup: total CFTR intensity of COc1ccc(OC)c(NC2=C(Cl)C(=O)N(Cc3ccccc3)C2=O)c1
// result 100

// query Please report the recorded total CFTR intensity for Cc1cc(OCC(=O)C(C)(C)C)c2c(C)c(C)c(=O)oc2c1 .
// result 86

// query Query: total CFTR intensity; subject: COC(=O)c1ccccc1NC(=O)c1ccc(COc2ccc3c(c2)CCC3)cc1
// result 83

// query Look up total CFTR intensity: CC(C)CC(=O)N(Cc1ccc(F)cc1)C1CCS(=O)(=O)C1 (stereo unspecified)
// result 98

// query I am curious: what total CFTR intensity value has been reported for O=C1CC(c2ccc(OCCCCCOc3ccc(C4CC(=O)NC4=O)cc3)cc2)C(=O)N1 (stereo unspecified) ?
// result 95

// query Please report the recorded total CFTR intensity for C/C(=N\N=C1/NC(=O)C(CC(=O)Nc2ccc(Cl)cc2)S1)c1ccco1 (stereo unspecified) .
// result 80

// query Look up total CFTR intensity: Cc1cc(/C=N/O)c(C)n1-c1ccc(Br)cc1
// result 82

// query Value lookup for total CFTR intensity; key = N#C/C(C(N)=O)=c1/ccc2c(c1)N1C3=C(CCCC3)CC3CCCCC31N=2 (stereo unspecified)
// result 123

// query Recorded total CFTR intensity of CC(=O)c1c[nH]c2ccc(C)cc2c1=O , please.
// result 84

// query Return reported total CFTR intensity; argument: CC(C)NC[C@@H](O)c1ccc(O)c(O)c1
// result 111

----------
- TESTED_ON: Cystic fibrosis transmembrane conductance regulator (Homo sapiens)
- PROCEDURE_DETAILS: F508del-CFTR plasma membrane relocalization enhancers – imaging, HeLa, high-content microscopy, immunofluorescence, primary screen (AID 1224864);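 further: HeLa cells stably expressing F508del-CFTR stained with 3G11 antibody against NBD1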
- REPORTED_CONDITIONS: PM immunofluorescence imaging, 24 h, at 10 µM, stronger effect = higher value, relative to vehicle wells set at 100; measured here: total cellular F508del-CFTR signal
Out of some 2,000 compounds screened, about 20 (1%) were called active. The sample holds actives, similar compounds and a random draw of the others, so the mix is not that of the screen.
READOUT_TYPE: total CFTR intensity (%)
Write the value in % as a bare number.

// query Please report the recorded total CFTR intensity for COc1ccc2c(c1OC)C(=O)NC(C)=C(C(=O)OC(C)(C)C)C2O (stereo not drawn) .
// result 90

// query What total CFTR intensity value was documented for this molecule, CCc1cc(=O)oc2cc(C)c(CN3CCCC(C)C3)c(O)c12 (stereo not drawn) ?
// result 88

// query What measured total CFTR intensity goes with Cc1coc2c1c(C)cc1oc(=O)c(Cc3ccccc3)c(C)c12 ?
// result 91
